- Experimental Setup: buffer; pH 7.4; 6.0 h; 150.0 µM
Quick list: solubility kinetic per entry.
Assay Readout: solubility kinetic

> print(dat)
                                    compound       assay.readout      result
 1  Cc1ccc(S(=O)(=O)Nc2cnccc2C(=O)Nc2ccc(N3CCOCC3)cc2)cc1  solubility kinetic  > 67 µg/mL
 2  O=C1CCCC2=C1C(c1[nH]ncc1Cl)N=C(Nc1nc3c(Cl)cccc3o1)N2 (stereo not given)  solubility kinetic  1.83 µg/mL
 3  Cc1cn(CCN2CCN(c3ccccc3-c3cc(C#N)cc(C(=O)NCCCN4CCCC4)c3)CC2)c2ccccc12  solubility kinetic  14.6 µg/mL
 4  COCCNCc1ccc(-c2cc3nccc(Oc4ccc(NC(=O)C5(C(=O)Nc6ccc(F)cc6)CC5)cc4F)c3s2)nc1  solubility kinetic   < 1 µg/mL
 5  Cc1ccc(S(=O)(=O)c2cnc(SC(C)C(=O)Nc3ccccc3)[nH]c2=O)cc1 (stereo not given)  solubility kinetic  > 63 µg/mL
 6  COc1nccc(-c2nc(Nc3ccc(F)c(F)c3)c3ccccc3n2)c1Cl  solubility kinetic   < 1 µg/mL
 7  C[C@]12CC[C@@H]3[C@H](CCC4=CC(=O)CC[C@]43C)[C@]1(O)CC[C@@]2(O)C(=O)CO  solubility kinetic  > 54 µg/mL
 8  Cc1cnc(-c2ccccc2C(C)C)nc1NCC1CCN(c2cccnc2)C1 (stereo not given)  solubility kinetic  7.52 µg/mL
 9  Fc1cc(Nc2nc(-c3ccncc3)nc3ccccc23)ccc1C(F)(F)F  solubility kinetic   < 1 µg/mL
10  O=C(NCCCNc1nc(Nc2cccc(CN3CCOCC3)c2)ncc1C1CC1)C1CCC1  solubility kinetic  > 69 µg/mL
11  CCCCNC(=O)CN1CCN(c2ncc(NC(=O)c3ccc(Cl)cc3)cc2C(=O)O)CC1  solubility kinetic  > 70 µg/mL
12            Brc1ccc(-c2csc(N3CCCCC3)n2)cc1  solubility kinetic   < 1 µg/mL
13  COc1ccc(C2c3c(oc4ccc(C)cc4c3=O)C(=O)N2CCCN2CCOCC2)cc1OC (stereo not given)  solubility kinetic  > 71 µg/mL
14  Fc1cc(Nc2nc(-c3ccncc3)nc3ccccc23)ccc1N1CCCC1  solubility kinetic   < 1 µg/mL
15  NC(=O)C1CCN(c2nc(-c3ccccc3-c3ccccc3)cs2)CC1  solubility kinetic  30.6 µg/mL
16  COc1ccc(-n2nc(C3CCN([S+](=O)([O-])c4c(C)noc4C)CC3)[nH]c2=O)cc1  solubility kinetic   < 1 µg/mL
17  COc1ccc(O)c(CNc2ccc(S(=O)(=O)Nc3nccs3)cc2)c1  solubility kinetic  > 58 µg/mL
18    NC(=O)C1CCN(c2ncc(-c3ccc(Cl)cc3)s2)CC1  solubility kinetic   < 1 µg/mL
19  COc1ccc(OC)c(-c2nnc3ccc(-c4ccc(OC)c(O[C@@H]5CCOC5)c4)nn23)c1  solubility kinetic  > 66 µg/mL
20  COc1cccc(CNC(=O)c2c(OC)cc(=O)n3c2CCN(C(=O)c2ccc(C)cc2C)CC3)c1  solubility kinetic  > 72 µg/mL

---

- Experimental Setup: buffer; pH 7.4; 6.0 h; 150.0 µM
Quick list: solubility kinetic per entry.
Assay Readout: solubility kinetic

> print(dat)
                                    molecule      result
 1  CCCN1CNc2c(c(=O)[nH]c(=S)n2CCc2ccc(OC)c(OC)c2)C1  > 58 µg/mL
 2  CC1=C(C(=O)NC2CCCCC2)C(c2ccccc2Br)N=C(Nc2nc3ccccc3o2)N1 (stereo not given)   < 1 µg/mL
 3  CCC(Sc1nc2ccccc2c2nc(CCc3c(C)n[nH]c3C)nn12)C(=O)Nc1ccc(F)cc1 (stereo not given)   < 1 µg/mL
 4  O=C(Nc1ccc2oc(-c3ccncc3)nc2c1)c1ccccc1Cl   < 1 µg/mL
 5  Cc1noc(C)c1-c1ccc(-c2cc(C(N)=O)c(NC(N)=O)s2)c(O[C@H]2CCNC2)c1  38.5 µg/mL
 6  O=C1CCCC2=C1C(c1ccccc1Cl)N=C(Nc1nc3ccccc3o1)N2 (stereo not given)   < 1 µg/mL
 7  CN(C)c1ccc(-c2csc(N3CCC(C(N)=O)CC3)n2)cc1  3.78 µg/mL
 8  O=C(Nc1ccc([S+](=O)([O-])Nc2nccs2)cc1)c1ncn[nH]1  > 52 µg/mL
 9  Oc1c(C(Nc2nccs2)c2ccc(C(F)(F)F)cc2)ccc2cccnc12 (stereo not given)   < 1 µg/mL
10                  Cc1c(O)ccc2c1OC(C)(C)CC2  8.29 µg/mL
11  Cc1ccc(S(=O)(=O)Nc2ccc(Br)cc2C(=O)Nc2nc(-c3ccccc3)cs2)cc1   < 1 µg/mL
12  O=C(Nc1ncc(Cc2ccc(C(F)(F)F)cc2)s1)c1cnc(-c2ccccc2)s1   < 1 µg/mL
13  CC1(C)C[C@@H]2C[C@@](C)(CN2S(=O)(=O)c2ccc(C(=O)Nc3ccc(Cl)c(S(=O)(=O)N4CCOCC4)c3)cc2)C1   < 1 µg/mL
14  CC1CCN(S(=O)(=O)c2ccc3c(c2)C(C)(C)C(=O)N3CC(=O)NCc2ccco2)CC1  34.2 µg/mL
15  OC1(c2ccc(Cl)cc2)CCN(Cc2c[nH]c3ccccc23)CC1  > 50 µg/mL
16  CC(C)COc1ccc(-c2csc(N3CCC(C(N)=O)CC3)n2)cc1  2.68 µg/mL
17       NCC(=O)Nc1ccc(Cl)cc1C(=O)c1ccc[nH]1  > 41 µg/mL
18  NC(=O)COc1cccc(C2CC(=O)Nc3nc(N4CCCCC4)sc32)c1 (stereo not given)  > 57 µg/mL
19  CCC(CC)C(=O)NC[C@@H]1C=C(C)[C@H](Cc2nc3c(C)cccc3[nH]2)C[C@H]1C(C)C  4.34 µg/mL
20  COc1cccc(CNc2ccc(S(=O)(=O)Nc3cccc4ccncc34)cc2)c1O   < 1 µg/mL

---

- Experimental Setup: buffer; pH 7.4; 6.0 h; 150.0 µM
Note to self: values exactly at 4 µg/mL are true (1). So solubility kinetic at or above 4 µg/mL is true (1), below is false (0).

> print(dat)
                                    compound        cat
 1  CN([C@@H](Cc1ccc(OS(=O)(=O)c2cccc3cnccc23)cc1)C(=O)N1CCN(c2ccccc2)CC1)S(=O)(=O)c1cccc2cnccc12  false (0)
 2  Nc1nc2c(s1)C(c1ccccc1OCc1ccccc1Cl)CC(=O)N2 (stereo unspecified)  false (0)
 3  CCc1ccc(NC(=O)[C@H](Cc2c[nH]c3ccccc23)NC(=O)[C@@H]2Cc3ccccc3CN2)cc1  false (0)
 4  Cc1ccc(S(=O)(=O)Nc2cccc(C(=O)Nc3nc(-c4ccccc4)cs3)c2Cl)cc1  false (0)
 5  CC(=O)Nc1ccc(-c2csc(N3CCC(C(N)=O)CC3)n2)cc1   true (1)
 6  CC(C)(C)c1ccc(S(=O)(=O)N2CCC(c3ccncc3)CC2)cc1  false (0)
 7  FC(F)(F)c1cccc(N2CCN(C(=S)Nc3ccccn3)CC2)c1   true (1)
 8  CC(=O)c1ccc(N2CCN(S(=O)(=O)c3ccc4[nH]c(=O)[nH]c4c3)CC2)cc1  false (0)
 9  COc1ccc(C2c3c(ncn(CCN4CCOCC4)c3=N)Oc3ccc4ccccc4c32)cc1OC (stereo unspecified)   true (1)
10  NC1(c2ccc(NC(=O)c3ccnc(-c4cc(C(=O)O)ccn4)c3)cc2)CC1  false (0)
11  CN(C)c1cccc(-c2cnc(Nc3cccnc3)c3c2CCO3)c1  false (0)
12   N#Cc1cccc(-c2csc(N3CCC(C(N)=O)CC3)n2)c1   true (1)
13    COc1ccc(CNC(=O)Cn2nc3c(cc2=O)CCCC3)cc1   true (1)
14  CNc1nc2c(s1)C(c1ccc(Cl)cc1)CC(=O)N2 (stereo unspecified)   true (1)
15  CC(=O)C1CCN(c2ncc(-c3cccc(N(C)C)c3)s2)CC1  false (0)
16  O=C(Nc1ccc(Nc2ccncc2)cc1)c1ccc(Nc2ccnc3ccc([N+](=O)[O-])cc23)cc1[N+](=O)[O-]  false (0)
17  COC(=O)c1ccc(Nc2nc(-c3ccncc3)nc3ccccc23)cc1OC  false (0)
18  O=C(Nc1cccc(C(F)(F)F)c1)c1cc2nc(-c3ccccc3)cc(C(F)(F)F)n2n1  false (0)
19  COc1c(O)ccc2c1CN1CCc3cc4c(cc3[C@@H]1C2)OCO4   true (1)
20  CCOc1cc2ncc(C#N)c(Nc3ccc(OCc4ccccn4)c(Cl)c3)c2cc1NC(=O)/C=C/CN(C)C  false (0)
21  Cc1cc(NS(=O)(=O)c2ccc(NC(=O)Cc3ccc(Cl)c(Cl)c3)cc2)no1   true (1)
22  CCN1C(=O)c2ccccc2[S@](=O)c2ccc(C(=O)NCc3ccc(C#N)cc3)cc21   true (1)
23  Cc1ccc(S(=O)(=O)Nc2ccccc2C(=O)Nc2cnc(-c3ccccc3)cn2)cc1  false (0)
24       CC(C)CNC(=O)c1cn2cc(-c3ccccc3)sc2n1   true (1)
25  CNC(=O)c1ccccc1Nc1nc(Nc2ccc(N3CCOCC3)cc2OC)ncc1Cl   true (1)
26  CCOC(=O)c1ccnc2cc(C(OCCN3CCCCC3)c3ccccc3Cl)sc12 (stereo unspecified)   true (1)
27  COc1ccccc1-c1nc(NCc2ccc(-c3cccnc3)cc2)c2ccccc2n1  false (0)
28  COc1cccc(-c2csc(NC(=O)c3ccncc3NS(=O)(=O)c3ccc(C)cc3)n2)c1   true (1)
29   COc1cc(Cl)c(C)cc1Nc1c2c(nc3ccccc13)CCC2  false (0)
30     Nc1scc2c(C(=O)O)nn(-c3ccccc3)c(=O)c12   true (1)
31  COc1ccc(-c2ccc3nc(-c4cc(F)ccc4F)oc3c2)c(OC)c1OC  false (0)
32  O=C(O)C(=O)O.Oc1ccccc1NCC(O)Cn1ccc2ccccc21 (stereo unspecified)   true (1)
33  CN(C(=O)c1cn2c(-c3ccc(C(F)(F)F)cc3)cnc2cn1)c1ccc(C#N)cc1  false (0)
34  CCOc1ccc(CCNC(=O)c2cc3cccnc3n2Cc2cccc(C)n2)cc1OCC   true (1)
35  Cc1nnc(N2C(=O)c3oc4ccccc4c(=O)c3C2c2ccc(F)cc2)s1 (stereo unspecified)  false (0)
36  O=C(NC1CCCN(c2cc(-c3ccc(F)cc3)[nH]n2)C1)c1ccc2ncccc2c1 (stereo unspecified)   true (1)
37  COc1ccc(NC(C)=O)cc1S(=O)(=O)Nc1ccc(Br)cc1   true (1)
38  Cc1cccc(-n2cnc3cc(C(=O)N4CCCC(C)C4)ccc32)c1 (stereo unspecified)   true (1)
39  O=C(/C=C/c1cn(CC(O)CN2CCCCCC2)c2ccccc12)c1ccc(Br)cc1 (stereo unspecified)  false (0)
40  COc1ccc(-n2cnc3cc(C(=O)N4CCCCC4)ccc32)cc1   true (1)
41  O=C(c1cccc(F)c1)N1CCC2(CCN(Cc3cc(C(F)(F)F)cc(C(F)(F)F)c3)CC2)CC1  false (0)
